Test target: T1, BCMA (Homo sapiens (Human), UniProt Q02223 1-54, limits assumed)
T1 sequence: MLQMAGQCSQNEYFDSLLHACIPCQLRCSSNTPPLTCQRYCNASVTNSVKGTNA
Assay method text: ELISA, format not described
Parameters: unit not given here
The entries below come with measured ELISA_avg values attached.
Form rule: numeric answer, no unit written next to it.

Solved entries (count: 2):
- Binder: "D-domain SEQ ID NO: 86 (designed binder) MGSWVEFEYRLVAIFDRLQALGGSEAELAAFEKEIAAFESELQAYKGKGNPEVEELRYQAALIRVMLQAYRHN"
  ELISA_avg: 7.63
- Binder: "D-domain SEQ ID NO: 291 (designed binder) MGSWHNFKYRLAIIKFMLEALGGSEAELAWFENWIADFEDSLQDYKGKGNPEVEALRKEAAAIRDELQAYRHN"
  ELISA_avg: 13.6

Could you now consider this next binder?
Please report the recorded ELISA_avg for D-domain SEQ ID NO: 317 (designed binder) MGSWEVFKHELAVIKDYLEALGGSEAELAHFEWGIAWFEGFLQDYKGKGNPEVEALRKEAAAIRDELQAYRHN . 9.33
